Ref: patent US20050171037A1

- assay_procedure: Compound A pharmacokinetics after oral administration of a single dose with and without ritonavir, human subjects, fed
- Format: in vivo
- test_parameters: plasma, po, 300 mg, single oral dose 300 mg, without ritonavir, geometric mean
quantity: Cmax (ng/mL)
Provide only the numeric value, understood in ng/mL.

Entry under test: C=CCNC(=O)[C@H]1N(C(=O)[C@@H](O)[C@H](Cc2ccccc2)NC(=O)c2cccc(O)c2C)CSC1(C)C . Its Cmax was 720

###

- assay_procedure: Compound A pharmacokinetics after oral administration of a single dose with and without ritonavir, human subjects, fed
- Type: in vivo
- test_parameters: plasma, po, 2000 mg, single oral dose 2000 mg, without ritonavir, geometric mean
quantity: Cmax (ng/mL)
Provide only the numeric value, understood in ng/mL.

Entry under test: C=CCNC(=O)[C@H]1N(C(=O)[C@@H](O)[C@H](Cc2ccccc2)NC(=O)c2cccc(O)c2C)CSC1(C)C [Compound A] . Its Cmax was 7490
